Tested on: Escherichia coli
Experiment: Inhibition of Escherichia coli SoxS binding to DNA at 50 ug/mL
Recorded inhibition determines the group label, using lower bin: < 10%; middle bin: ≥ 10% and < 30%; upper bin: ≥ 30%

Data request: Lab log: O=C(NCc1ccc(-c2nc3ccc([N+](=O)[O-])cc3n2O)cc1)c1ccccc1 — assign inhibition category
Data returned: upper bin

Data request: And for NC(=O)c1ccc2nc(-c3ccccc3)n(O)c2c1 ?
Data returned: middle bin

Data request: O=[N+]([O-])c1ccc2nc(-c3ccc(Br)cc3)n(O)c2c1 ?
Data returned: middle bin

Data request: Here is the next compound: Nc1ccc(-c2nc3ccc([N+](=O)[O-])cc3n2O)cc1
Data returned: upper bin

Data request: What about this compound? O=[N+]([O-])c1ccc2nc(-c3ccc(O)cc3)n(O)c2c1
Data returned: upper bin

Data request: Please give the result for On1c(-c2ccccc2)nc2ccc(F)cc21 too.
Data returned: middle bin

Data request: What about this compound? O=C(O)c1ccc2nc(-c3ccccc3)n(O)c2c1
Data returned: middle bin

Data request: # iterate: C/C(=N/O)c1ccc2nc(-c3ccccc3)n(O)c2c1
Data returned: upper bin

Data request: How about this compound: COc1ccc(-c2nc3ccc([N+](=O)[O-])cc3n2O)cc1
Data returned: middle bin

Data request: Here is the next compound: O=[N+]([O-])c1ccc2nc(-c3ccccc3)n(O)c2c1
Data returned: upper bin

Data request: Same lookup for Nc1cccc(-c2nc3ccc([N+](=O)[O-])cc3n2O)c1 , please.
Data returned: upper bin

Data request: Likewise for CC(=O)Nc1ccccc1-c1nc2ccc([N+](=O)[O-])cc2n1O ?
Data returned: upper bin

Data request: Can you handle On1c(-c2ccccc2)nc2ccccc21 next?
Data returned: lower bin

Data request: Query O=[N+]([O-])c1ccc2nc(-c3ccccc3)n(OCCO)c2c1 next
Data returned: lower bin

Data request: Proceed to N#CCOn1c(-c2ccccc2)nc2ccc([N+](=O)[O-])cc21
Data returned: middle bin

Data request: Try CCOC(=O)COn1c(-c2ccccc2)nc2ccc([N+](=O)[O-])cc21 next.
Data returned: lower bin

Data request: Continue with O=[N+]([O-])c1ccc2nc(-c3ccc(Oc4ccccc4)cc3)n(O)c2c1
Data returned: middle bin

Data request: Another compound: CCCOn1c(-c2ccccc2)nc2ccc([N+](=O)[O-])cc21
Data returned: lower bin

Data request: Ok, now NCCOn1c(-c2ccccc2)nc2ccc([N+](=O)[O-])cc21
Data returned: lower bin

Data request: Moving on to the next compound: O=C(O)COn1c(-c2ccccc2)nc2ccc([N+](=O)[O-])cc21
Data returned: middle bin

Data request: Check CC(=O)c1ccc2nc(-c3ccccc3)n(O)c2c1 too.
Data returned: upper bin

Data request: Continue with COn1c(-c2ccccc2)nc2ccc([N+](=O)[O-])cc21
Data returned: middle bin

Data request: Follow-up item: COc1ccc2nc(-c3ccccc3)n(O)c2c1
Data returned: lower bin

Data request: Subsequent entry: CN(C)c1ccc(-c2nc3ccc([N+](=O)[O-])cc3n2O)cc1
Data returned: upper bin

Data request: // same read-out, input: Nc1ccccc1-c1nc2ccc([N+](=O)[O-])cc2n1O
Data returned: lower bin

Data request: What do you get for CN(C)c1ccc2nc(-c3ccccc3)n(O)c2c1 ?
Data returned: middle bin

Data request: What do you have for CC(=O)Nc1cccc(-c2nc3ccc([N+](=O)[O-])cc3n2O)c1 ?
Data returned: upper bin

Data request: What about this compound? O=C(Nc1ccc(-c2nc3ccc([N+](=O)[O-])cc3n2O)cc1)c1ccccc1
Data returned: upper bin

Data request: O=C(O)CCOn1c(-c2ccccc2)nc2ccc([N+](=O)[O-])cc21 ?
Data returned: lower bin

Data request: Another compound: CS(=O)(=O)c1ccc2nc(-c3ccccc3)n(O)c2c1
Data returned: upper bin

Data request: Then what about the compound On1c(-c2ccccc2)nc2ccc(C(F)(F)F)cc21 ?
Data returned: middle bin

Data request: What about this compound? CC(C)(C)c1ccc2nc(-c3ccccc3)n(O)c2c1
Data returned: lower bin

Data request: Let us now turn to CC(=O)Nc1ccc(-c2nc3ccc([N+](=O)[O-])cc3n2O)cc1
Data returned: upper bin

----------
Experiment: Inhibition of Proteus mirabilis PqrA binding to DNA
measurement type: pIC50
FYI, pIC50 means -log10 of a concentration in mol per litre.

Data request: Report pIC50 for CN(C)c1ccc(C(=O)Nc2ccc(-c3nc4ccc([N+](=O)[O-])cc4n3O)cc2)cc1 please.
Data returned: 5.85

----------
Assay: Inhibition of Escherichia coli SoxS binding to DNA
pIC50: −log10 of the molar value.
# if value of pIC50 reaches 5, tag Yes; if it stays below, tag No

Data request: Does pIC50 meet or surpass 5 for O=C(Nc1ccc(-c2nc3ccc([N+](=O)[O-])cc3n2O)cc1)c1cccc(Cl)c1 ?
Data returned: Yes

Data request: Item: CN(C)c1ccc(C(=O)Nc2ccc(-c3nc4ccc([N+](=O)[O-])cc4n3O)cc2)cc1
Data returned: Yes

Data request: Another molecule to look at: COc1ccc(C(=O)Nc2ccc(-c3nc4ccc([N+](=O)[O-])cc4n3O)cc2)cc1
Data returned: Yes

Data request: Next entry: O=C(Nc1ccc(-c2nc3ccc([N+](=O)[O-])cc3n2O)cc1)c1ccc(F)cc1
Data returned: Yes

Data request: Subsequent entry: O=C(Nc1ccc(-c2nc3ccc([N+](=O)[O-])cc3n2O)cc1)c1ccccc1
Data returned: No

Values compiled from ChEMBL document CHEMBL1139810.
